assay: cytotoxicity in HPDE-C7 cells, cell-based, fluorescence, HTS (AID 430); conditions: HPDE-C7 pancreatic duct cells viability, at 10 µM, active compounds read high;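 note: cells exposed to compound for 48 hours before viability readout; 0% = vehicle and 100% = reference cytotoxic drug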
Screen size: about 63,000 compounds; about 1,100 (1.7%) were called active. For the sample, actives were picked, then their nearest neighbours and some compounds at random. Results with a measured potency or affinity are listed apart.
So I've got a bunch of molecules here, and I need their cytotoxicity values.
Number in %, nothing else.

The molecule identified as `CC1(C)Cc2c(c(N3CCCC3)nc3sc4c(N5CCN(CCO)CC5)ncnc4c23)CO1` registered its cytotoxicity at 60.5

The molecule identified as `Cc1ccc(-c2nsc3c(N4CCN(C(=O)c5ccco5)CC4)ncnc23)cc1` registered its cytotoxicity at -21.7

The molecule identified as `Cc1cnc(NC(=O)CCCSc2nc3ccccc3s2)s1` registered its cytotoxicity at -1.8

The molecule identified as `COc1ccc(-c2nsc3c(N4CCCC4)ncnc23)cc1` registered its cytotoxicity at 7.9

The molecule identified as COc1ccc(N2C(=O)CSC23C(=O)Nc2ccccc23)cc1OC (stereo not given) registered its cytotoxicity at -18.4

The molecule identified as `COc1cc2c(cc1OC)CN(C(=O)c1ccccc1C(=O)O)CC2` registered its cytotoxicity at -15.6

The molecule identified as `CN1CCN(c2ncnc3c2sc2nc(N4CCCC4)c4c(c23)CC(C)(C)OC4)CC1` registered its cytotoxicity at -7.2

The molecule identified as `OCCN1CCN(c2ncnc3c2sc2nc(N4CCOCC4)c4c(c23)CCC4)CC1` registered its cytotoxicity at 35.6

The molecule identified as `O=C(O)c1cc(C(=O)O)c(-c2ccccc2)c(C(=O)O)c1` registered its cytotoxicity at -22.6

The molecule identified as `COc1ccc(S(=O)(=O)N2CCN(c3ncnc4c(-c5ccccc5)nsc34)CC2)cc1` registered its cytotoxicity at 5.6

###

test: cytotoxicity in HPDE-C7 cells, cell-based, fluorescence, HTS (AID 430); details: HPDE-C7 pancreatic duct cells viability, at 10 µM;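 note: cells exposed to compound for 48 hours before viability readout; 0% = vehicle and 100% = reference cytotoxic drug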
Out of some 63,000 compounds screened, about 1,100 (1.7%) were called active. No stated cut-off is given here; in the data, active means cytotoxicity above about 50%; inactive means the rest. Shown is part of a subset that was picked to be rich in actives. Potency and affinity values are given separately.
Respond using exactly one of the listed classes: Yes (active), No (inactive)

Assay result, entry `COc1cccc(Oc2nnnn2-c2ccccc2)c1` — outcome? No

Assay result, entry `COc1cccc(-n2nnnc2SCC(=O)c2cc(OC)ccc2OC)c1` — outcome? No

Assay result, entry `CCS(=O)(=O)c1nnnn1-c1ccccc1S(C)(=O)=O` — outcome? No

Assay result, entry `Clc1ccc(-n2nnnc2-c2ccccc2)cc1` — outcome? No

Assay result, entry `COc1ccc(-c2nnnn2-c2ccccc2OC)cc1` — outcome? No

Assay result, entry `Cn1c(SCc2c(F)cccc2Cl)nnc1-c1cccs1` — outcome? No

Assay result, entry `COc1ccc(-c2nnnn2CCc2ccccc2)cc1` — outcome? No

Assay result, entry `COc1ccc(C(=O)c2ccc(OC)c(N)c2)cc1N` — outcome? Yes

Assay result, entry `Cc1ccc(S(=O)(=O)N2CCOCC2)cc1C(=O)O` — outcome? No

Assay result, entry `O=C(CSc1nnnn1-c1ccccc1)CSc1nnnn1-c1ccccc1` — outcome? No

Assay result, entry `COc1ccc(C)cc1NC(=O)COCC(=O)O` — outcome? No

Assay result, entry `Cc1[nH]n2c(=O)cc(C(C)(C)C)nc2c1-c1ccccc1` — outcome? Yes
